Values compiled from paper PMC11986975.

- TEST_TARGET: Cdk5/p35 (Homo sapiens)
- Sequence (Q00535 whole entry, species assumed): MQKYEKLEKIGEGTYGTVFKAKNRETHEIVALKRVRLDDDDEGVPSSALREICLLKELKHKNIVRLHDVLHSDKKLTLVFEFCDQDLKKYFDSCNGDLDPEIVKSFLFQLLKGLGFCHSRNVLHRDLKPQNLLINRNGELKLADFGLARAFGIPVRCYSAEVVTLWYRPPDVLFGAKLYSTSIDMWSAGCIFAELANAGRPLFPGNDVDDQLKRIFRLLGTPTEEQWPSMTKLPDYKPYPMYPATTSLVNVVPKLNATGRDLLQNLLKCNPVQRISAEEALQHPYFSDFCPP
- Sequence (Q15078 whole entry partner, species assumed): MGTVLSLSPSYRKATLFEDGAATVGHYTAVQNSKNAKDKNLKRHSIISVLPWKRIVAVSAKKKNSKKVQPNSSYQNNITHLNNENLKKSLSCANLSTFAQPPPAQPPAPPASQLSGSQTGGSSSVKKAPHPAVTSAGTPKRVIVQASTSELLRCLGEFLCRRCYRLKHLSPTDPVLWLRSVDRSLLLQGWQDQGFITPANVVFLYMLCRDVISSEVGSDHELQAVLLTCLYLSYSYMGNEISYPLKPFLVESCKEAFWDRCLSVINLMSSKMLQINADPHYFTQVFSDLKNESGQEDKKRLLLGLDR
- EXPERIMENTAL_DETAILS: Cdk5 kinase assay (ADP-Glo) with Cdk5/p35 complex
- Type: biochemical
- STATED_CONDITIONS: 10 μM ATP, histone substrate, inhibitor 0-100 nM
PROPERTY_NAME: IC50 (nM)
Answer in nM, number only, no unit symbol.

q: For the molecule shown here, COc1ccc(C(=O)CSc2nc3sc(C)c(C)c3c(=O)[nH]2)cc1C , give the reported IC50.
a: 92.6

q: For the molecule shown here, CC1(C)Cc2c(sc3nc(SCC(=O)O)[nH]c(=O)c23)CO1 , give the reported IC50.
a: 19.2

q: For the molecule shown here, Clc1ccc2nc(SCc3csc(Nc4ccccc4)n3)oc2c1 , give the reported IC50.
a: 28

q: For the molecule shown here, O=C(CSc1n[nH]c(-c2ccc(Cl)cc2)n1)N[C@H]1C[C@@H]2CC[C@H]1C2 , give the reported IC50.
a: 63.2

q: For the molecule shown here, O=C(COc1ccccc1C(=O)Nc1cccc(Cl)c1Cl)Nc1ccc(N2CCOCC2)c(Cl)c1 , give the reported IC50.
a: 17.1
